System: SKOV3
ASSAY EXPLANATION: Primary qHTS to identify gynecologic anti-cancer compounds using libraries of approved drugs and bioactive compounds (AID 1345084); also: nearly all actives have a fitted effect of over 55% in size
ASSAY CONTEXT: Gynecologic cancer cell panel viability, ATPlite luminescence, 48 h; series mostly up to 57.5 µM
Records with an inconclusive call do not appear. Active and inactive are the calls of the source. Calls follow the shape of the dose curve; as a rule, active = well fitted cell-killing curve with a large enough effect; inconclusive = small, poorly fitted or top-dose-only effect, or effect the other way; inactive = flat fitted curve, though single readings scatter.
VALUE TYPE: outcome

[[record]]
compound = "O=[N+]([O-])c1ccc(-[n+]2nc(-c3ccccc3)nn2-c2ccc(I)cc2)cc1"
value_type = "outcome"
result = "inactive"

[[record]]
compound = "CN1CCN(C(=O)c2ccc(Nc3nccc(-c4cccs4)n3)cc2Cl)CC1"
value_type = "outcome"
result = "inactive"

[[record]]
compound = "Nc1ccc(N)c([N+](=O)[O-])c1"
value_type = "outcome"
result = "inactive"

[[record]]
compound = "CC(C)c1ccc(NC(=O)C(c2ccccc2)N(C)C(=O)Cc2c[nH]c3ccccc23)cc1 (stereo not given)"
value_type = "outcome"
result = "inactive"

[[record]]
compound = "COc1ccc(CNC(=O)Nc2ncc([N+](=O)[O-])s2)cc1"
value_type = "outcome"
result = "inactive"


----------
ASSAY EXPLANATION: Drug repurposing screens with cells derived from glioblastoma tumor samples (AID 1345199); also: potency is read from the fitted curve at half-maximal effect; nearly all actives have a fitted effect of over 40% in size
ASSAY CONTEXT: GBM patient neurospheres viability, ATP luminescence, 48 h; tumour line A
Inconclusive results are not listed. Activity calls are given as the source filed them. The call rests on the fitted dose curve; in most records, active means well fitted inhibition curve with a large enough effect; inconclusive means small, poorly fitted or top-dose-only effect; inactive means flat fitted curve, though single readings scatter.
VALUE TYPE: Potency

[[record]]
compound = "NCCNCCN"
value_type = "Potency"
result = "28.2 µM (active)"

[[record]]
compound = "COc1cc([C@@H]2c3cc4c(cc3C(O[C@@H]3O[C@@H]5CO[C@@H](C)O[C@H]5[C@H](O)[C@H]3O)C3COC(=O)[C@@H]32)OCO4)cc(OC)c1OP(=O)(O)O (some centres undefined)"
value_type = "Potency"
result = "15.8 µM (active)"

[[record]]
compound = "CCOC(=O)CCC(=O)O[C@H]1[C@H](O[C@@H]2[C@@H](C)[C@H](O[C@H]3C[C@@](C)(OC)[C@@H](O)[C@H](C)O3)[C@@H](C)C(=O)O[C@H](CC)[C@@](C)(O)[C@H](O)[C@@H](C)C(=O)[C@H](C)C[C@@]2(C)O)O[C@H](C)C[C@@H]1N(C)C"
value_type = "Potency"
result = "35.5 µM (active)"

[[record]]
compound = "CCCCCCCCCCCCCCCCSCC(COC)COP(=O)([O-])OCC[N+](C)(C)C (centres undefined)"
value_type = "Potency"
result = "22.4 µM (active)"


----------
ASSAY EXPLANATION: HPAF-II 24hr Apoptosis Induction qHTS against the NCATS CANVASS Library (AID 1347356)
ASSAY CONTEXT: HPAF-II caspase-3/7 Caspase-Glo luminescence; series mostly up to 46.1 µM
Inconclusive results are not listed. The source made the active and inactive calls. Calls follow the shape of the dose curve; as a rule, active = well fitted curve in the direction sought with a large enough effect; inconclusive = small, poorly fitted or top-dose-only effect, or effect the other way, or another doubt; inactive = no such curve, though single readings can be large or run the other way.
VALUE TYPE: caspase activation

[[record]]
molecule = "C/C1=C\\CC(=O)/C=C/C=C\\c2csc(n2)[C@@H](C)NC(=O)C[C@@](S)([C@@H](C)C(=O)O)CC1"
value_type = "caspase activation"
result = "inactive"

[[record]]
molecule = "CO[C@@H]1[C@H](O)[C@@H](C)O[C@@H](OC[C@H]2/C=C/C=C/C(=O)C(C)C[C@H](C)C(O[C@@H]3O[C@H](C)CC4(OC(=O)O[C@@H]4C)C3O)[C@@H](C)/C=C/C(=O)OC2C)[C@@H]1OC (stereo partly specified)"
value_type = "caspase activation"
result = "inactive"

[[record]]
molecule = "O=Cc1ccc2n1C[C@@]1(C[C@H](O)[C@@H](CO)O1)OC2"
value_type = "caspase activation"
result = "inactive"

[[record]]
molecule = "C[C@@H]1O[C@@H](O[C@@H]2[C@@H](O)[C@H](O[C@@H]3[C@@H](O)[C@@H](O)C(O[C@H]4[C@H](OC(=O)[C@]56CCC(C)(C)C[C@H]5C5=CCC7[C@@]8(C)C[C@H](O)[C@H](O[C@@H]9C[C@H](CO)[C@@H](O)[C@H](O)[C@H]9O)[C@@](C)(CO)C8[C@H](O)C[C@@]7(C)[C@]5(C)CC6)OC[C@H](O)[C@@H]4O)O[C@H]3C)OC[C@H]2O)[C@H](O)[C@H](O)[C@H]1O (stereo partly specified)"
value_type = "caspase activation"
result = "inactive"

[[record]]
molecule = "C[C@]12CC[C@]3(C1)[C@H](CC2=O)CC(OC(=O)c1ccccc1)[C@H]1[C@@](CO)(C(=O)O)CCC[C@@]13C (stereo partly specified)"
value_type = "caspase activation"
result = "inactive"

[[record]]
molecule = "C/C(=C\\[C@H](C)C(=O)CCCC1CC(=O)NC(=O)C1)C(O)[C@@H](C)[C@H](O)C/C=C/CC/C=C/C(=O)O (stereo partly specified)"
value_type = "caspase activation"
result = "inactive"

